System: C-33A (Cervical carcinoma)
Experiment: Cell viability analysis, cervical cancer C-33A
Assay type: cell-based, human
Conditions: Homo sapiens, 72 h; C-33A; repeated experiment; read-out: The results of antibiotic drug inhibiting cancer cell lines (cell viability analysis), C-33A
Counter-ions that a name gives are not always drawn.
Each record here notes measured viability at 10 µM.
Please format your answer as a value with the unit trailing.

The following compounds have reported results that may help.
COMPOUND	viability at 10 µM
CC[C@H](C)C(=O)O[C@H]1CCC=C2C=C[C@H](C)[C@H](CC[C@@H]3C[C@@H](O)CC(=O)O3)[C@H]21 [Mevastatin]	102%
Cc1ccc2c(Cl)cc(Cl)c(O)c2n1 [Chlorquinaldol]	47.5%
COc1c(C)c2c(c(O)c1C/C=C(\C)CCC(=O)O)C(=O)OC2 [Mycophenolic (Mycophenolate), Mycophenolic]	51.8%

What value of viability at 10 µM has been reported for the following compound? CN(C)CCC=C1c2ccccc2CCc2ccccc21 [Amitriptyline HCl]
100%

###

Test system: PC3 (p53−) (Prostate Adenocarcinoma)
Assay: Cell viability analysis, prostate cancer PC3
Assay type: cell-based, human
Conditions: human, 72 h, 10 µM
This listing pairs compounds with measured cell viability (survival rate), PC3.
Just the number, please, no unit attached.

COMPOUND	cell viability (survival rate), PC3
CN(C)[C@@H]1C(O)=C(C(N)=O)C(=O)[C@@]2(O)C(O)=C3C(=O)c4c(O)cccc4[C@@](C)(O)[C@H]3[C@H](O)[C@@H]12 [Oxytetracycline dihydrate]	42.1
CN(C)[C@@H]1C(O)=C(C(N)=O)C(=O)[C@@]2(O)C(O)=C3C(=O)c4c(O)cccc4[C@@](C)(O)[C@H]3[C@H](O)[C@@H]12 [Oxytetracycline (Terramycin), Oxytetracycline]	70.8
CC1(C)S[C@@H]2[C@H](NC(=O)[C@H](N)c3ccccc3)C(=O)N2[C@H]1C(=O)O [Ampicillin Trihydrate]	65.3

Next compound, cell viability (survival rate), PC3 to be filled in.
Data request, read-out cell viability (survival rate), PC3, for CC1(C)S[C@@H]2[C@H](NC(=O)[C@H](N)c3ccccc3)C(=O)N2[C@H]1C(=O)O [Ampicillin sodium]
98.1

###

Tested on: HI650 (Lung Adenocarcinoma)
Experiment: Cell viability analysis, lung cancer HI650
Assay type: cell-based, human
Details: Homo sapiens, NCI-H1650; drug 10 μM, 72 hours, WST-1, OD450 nm; read-out: cell viability (survival rate), H1650
Structures can show the parent of a compound that is named as a salt.
Each entry below carries its recorded viability at 10 µM.

Known results for molecules:
MOLECULE	RESULT
O=C([O-])[C@H](O)[C@@H](O)[C@H](O)[C@H](O)CO.[Na+] [Sodium Gluconate]	94.6%
Cc1cc(=O)n(-c2ccccc2)n1C [Antipyrine]	57.3%
CC(C)OC(=O)OCOP(=O)(CO[C@H](C)Cn1cnc2c(N)ncnc21)OCOC(=O)OC(C)C [Tenofovir Disoproxil Fumarate]	50.9%
CN(C)C(=O)C(CCN1CCC(O)(c2ccc(Cl)cc2)CC1)(c1ccccc1)c1ccccc1 [Loperamide hydrochloride]	66.7%
CC(C)(C)C(=O)C(Oc1ccc(Cl)cc1)n1ccnc1 (centres unmarked)	84.2%

Tell me the measured viability at 10 µM of COc1cccc(N(C)C(=S)Oc2ccc3c(c2)CCCC3)n1 [Liranaftate] , please.
50.7%

Bench note: what viability at 10 µM did C=C(NC(=O)C(=C)NC(=O)c1csc(C2=N[C@@H]3c4csc(n4)[C@H]4NC(=O)c5csc(n5)[C@H]([C@](C)(O)[C@@H](C)O)NC(=O)[C@H]5CSC(=N5)/C(=C/C)NC(=O)[C@H]([C@@H](C)O)NC(=O)c5csc(n5)[C@]3(CC2)NC(=O)[C@H](C)NC(=O)C(=C)NC(=O)[C@H](C)NC(=O)[C@H]([C@@H](C)CC)N[C@@H]2C=Cc3c([C@H](C)O)cc(nc3[C@H]2O)C(=O)O[C@@H]4C)n1)C(N)=O show?
45.4%

Tell me the measured viability at 10 µM of O=C(Nc1ccccc1)c1ccccc1O [Salicylanilide] , please.
80.5%

Could you tell me which viability at 10 µM is on file for CCOC(=O)CCC(=O)O[C@H]1[C@H](O[C@@H]2[C@@H](C)[C@H](O[C@H]3C[C@@](C)(OC)[C@@H](O)[C@H](C)O3)[C@@H](C)C(=O)O[C@H](CC)[C@@](C)(O)[C@H](O)[C@@H](C)C(=O)[C@H](C)C[C@@]2(C)O)O[C@H](C)C[C@@H]1N(C)C [Erythromycin Ethylsuccinate] ?
83.8%

Record request: viability at 10 µM value, item c1ccc2c(c1)sc1ccccc12
76.1%

Return reported viability at 10 µM; argument: CNC[C@H](O)[C@@H](O)[C@H](O)[C@H](O)CO
62%

###

Test system: PC3 (p53−) (Prostate Adenocarcinoma)
Assay: Cell viability analysis, prostate cancer PC3
Format: cell-based, human
Details: Homo sapiens, 72 h, drug 10 μM, 72 hours, WST-1, OD450 nm; read-out: cell viability (survival rate), PC3
Class membership depends on viability at 10 µM alone; the intervals are lowest: < 70%; middle: ≥ 70% and < 80%; highest: ≥ 80%

COMPOUND	TARGET_OR_TEST_SYSTEM	ASSIGNED_LABEL
CC(=O)N[C@H]1[C@H]([C@H](O)[C@H](O)CO)OC(C(=O)O)=C[C@@H]1N=C(N)N [Zanamivir (Relenza), Zanamivir]	PC3 (p53−) (Prostate Adenocarcinoma)	highest

Category of CC[C@@H]([C@H](C)O)n1ncn(-c2ccc(N3CCN(c4ccc(OC[C@@H]5CO[C@@](Cn6cncn6)(c6ccc(F)cc6F)C5)cc4)CC3)cc2)c1=O [Posaconazole] , please.
lowest

Which bin should I file COc1cnc(NS(=O)(=O)c2ccc(N)cc2)nc1 [Sulfameter (Bayrena), Sulfameter] under?
highest

Which class does COc1c(C)c2c(c(O)c1C/C=C(\C)CCC(=O)O)C(=O)OC2 [Mycophenolic (Mycophenolate), Mycophenolic] fall in?
middle

Given CCOc1ccc2nc3cc(N)ccc3c(N)c2c1 [Ethacridine lactate monohydrate] , name the class its viability at 10 µM places it in.
lowest

Field: class (viability at 10 µM) — entry: Cc1c(OCC(F)(F)F)ccnc1C[S+]([O-])c1nc2ccccc2[nH]1 (stereo not shown) [Lansoprazole]
highest

###

System: HL-60 (Acute Promyelocytic Leukemia)
Assay: Cell viability analysis, leukemia HL-60
Assay type: cell-based, human
Conditions: Homo sapiens, HL-60; drug 10 μM, 72 hours, WST-1, OD450 nm; read-out: cell viability (survival rate), HL-60
Where a name gives a salt, the structure may show the parent alone.
Reported viability at 10 µM values for a set of compounds
API: value field is a number in %; no unit string.

Solved cases below.
COMPOUND	UNIT_NAME	viability at 10 µM
CCC1(C)CC(=O)NC(=O)C1 [Bemegride]	%	125
CNC[C@H](O)[C@@H](O)[C@H](O)[C@H](O)CO	%	114
O=C([O-])[C@H](O)[C@@H](O)[C@H](O)[C@H](O)CO.[Na+] [Sodium Gluconate]	%	91.2
Clc1ccc(C(Cn2ccnc2)OCc2c(Cl)cccc2Cl)c(Cl)c1 (centres unmarked) [Isoconazole nitrate (Travogen), Isoconazole nitrate]	%	49.2
CCOC(=O)CCC(=O)O[C@H]1[C@H](O[C@@H]2[C@@H](C)[C@H](O[C@H]3C[C@@](C)(OC)[C@@H](O)[C@H](C)O3)[C@@H](C)C(=O)O[C@H](CC)[C@@](C)(O)[C@H](O)[C@@H](C)C(=O)[C@H](C)C[C@@]2(C)O)O[C@H](C)C[C@@H]1N(C)C [Erythromycin Ethylsuccinate]	%	83.6

Name the recorded viability at 10 µM for O=C(O)c1ccccc1 .
111

Which viability at 10 µM value belongs to CC(C)OC(=O)OCOP(=O)(CO[C@H](C)Cn1cnc2c(N)ncnc21)OCOC(=O)OC(C)C [Tenofovir Disoproxil Fumarate] ?
93.4

viability at 10 µM for COc1cccc(N(C)C(=S)Oc2ccc3c(c2)CCCC3)n1 [Liranaftate] ?
92

What does the data say about its viability at 10 µM? Entry: O=C(Nc1ccccc1)c1ccccc1O [Salicylanilide]
71.1

Recorded viability at 10 µM of C=C(NC(=O)C(=C)NC(=O)c1csc(C2=N[C@@H]3c4csc(n4)[C@H]4NC(=O)c5csc(n5)[C@H]([C@](C)(O)[C@@H](C)O)NC(=O)[C@H]5CSC(=N5)/C(=C/C)NC(=O)[C@H]([C@@H](C)O)NC(=O)c5csc(n5)[C@]3(CC2)NC(=O)[C@H](C)NC(=O)C(=C)NC(=O)[C@H](C)NC(=O)[C@H]([C@@H](C)CC)N[C@@H]2C=Cc3c([C@H](C)O)cc(nc3[C@H]2O)C(=O)O[C@@H]4C)n1)C(N)=O , please.
37.8

Which viability at 10 µM is listed for c1ccc2c(c1)sc1ccccc12 ?
110

Entry Cc1cc(C(C)(C)C)cc(C)c1CC1=NCCN1 [Xylometazoline HCl] : reported viability at 10 µM = ?
84.9

Quick check: viability at 10 µM of CCC[C@H](NC(=O)[C@@H]1[C@H]2CCC[C@H]2CN1C(=O)[C@@H](NC(=O)[C@@H](NC(=O)c1cnccn1)C1CCCCC1)C(C)(C)C)C(=O)C(=O)NC1CC1 ?
111

Report viability at 10 µM for CCC[S+]([O-])c1ccc2[nH]c(NC(=O)OC)nc2c1 (centres unmarked) [Albendazole Oxide (Ricobendazole), Albendazole Oxide] please.
103
